biological target: cPAH D139E (Chromobacterium violaceum, UniProt P30967, D139E); test: ITC, L-Phe binding to iron-reconstituted enzyme with excess BH4
measurement.kind: Kd (µM)
State just the number; it will be interpreted in µM.

[in] Give me measured Kd, please, for this compound: N[C@@H](Cc1ccccc1)C(=O)O [L-Phe, phenylalanine]
[out] 55

----------
target: cPAH D139K (Chromobacterium violaceum, UniProt P30967, D139K); assay: ITC, L-Phe binding to iron-reconstituted enzyme with excess BH4
measurement.kind: Kd (µM)
Value expressed in µM; do not type the unit.

[in] Respond only with Kd recorded for N[C@@H](Cc1ccccc1)C(=O)O
[out] 31
